Test: in vivo
Set-up: species or system mice
Conditions: male, NOD.Cg-Rag1tm1Mom Il2rgtm1Wjl/SzJ (NRG), mouse, iv, total radioactivity, Biodistribution: Kidneys
Where a SMILES comes first, the peptide text is derived from it. Bridges are numbered along the chain shown (N, C = ends). [ ]: non-standard residue; d: D form. The star is where a group is joined. X4 = O=C(O)CN1CCN(CC(=O)O)CCN(CC(=O)N[C@@H](CS(=O)(=O)O)C(=O)NCCCC[C@H](NC(=O)CNC(=O)CCCc2ccc(Cl)cc2)C(=O)*)CCN(CC(=O)O)CC1; X3 = O=C(O)CN1CCN(CC(=O)O)CCN(CC(=O)N[C@@H](CS(=O)(=O)O)C(=O)N[C@@H](CCCCNC(=O)CCCc2ccc(Br)cc2)C(=O)*)CCN(CC(=O)O)CC1; 2Nal = N[C@@H](Cc1ccc2ccccc2c1)C(=O)O; Lys(iPr) = CC(C)NCCCC[C@H](N)C(=O)O
REPORTED METRIC: tissue uptake at 1 h (%ID/g)
Kindly answer with a numeric value in %ID/g, unit omitted.

1. CC(C)NCCCC[C@H](NC(=O)[C@H]1CCC(=O)N[C@@H](CCCCNC(=O)[C@H](CCCCNC(=O)[C@H](CS(=O)(=O)O)NC(=O)CN2CCN(CC(=O)O)CCN(CC(=O)O)CCN(CC(=O)O)CC2)NC(=O)CNC(=O)CCCc2ccc(Cl)cc2)C(=O)N[C@@H](Cc2ccc(O)cc2)C(=O)N[C@@H](CCCCNC(C)C)C(=O)N[C@H](CCCNC(=N)N)C(=O)N[C@@H](Cc2ccc3ccccc3c2)C(=O)N[C@H](C)C(=O)N1)C(N)=O [[68Ga]Ga-BL34T1, metal not drawn] (K(X4)Y[Lys(iPr)][dR][2Nal][dA][dE][Lys(iPr)]-NH2; lactam N-7); 5.01

I am curious: what tissue uptake at 1 h value has been reported for CC(C)NCCCC[C@H](NC(=O)[C@H]1CCC(=O)N[C@@H](CCCCNC(=O)[C@H](CCCCNC(=O)CCCc2ccc(Br)cc2)NC(=O)[C@H](CS(=O)(=O)O)NC(=O)CN2CCN(CC(=O)O)CCN(CC(=O)O)CCN(CC(=O)O)CC2)C(=O)N[C@@H](Cc2ccc(O)cc2)C(=O)N[C@@H](CCCCNC(C)C)C(=O)N[C@H](CCCNC(=N)N)C(=O)N[C@@H](Cc2ccc3ccccc3c2)C(=O)N[C@H](C)C(=O)N1)C(N)=O [[^177Lu]Lu-BL34L20, metal not drawn] (K(X3)Y[Lys(iPr)][dR][2Nal][dA][dE][Lys(iPr)]-NH2; lactam N-7) ? 4.5

----------
Assay: in vivo
Set-up: species or system mice
Details: male, NOD.Cg-Rag1tm1Mom Il2rgtm1Wjl/SzJ (NRG), mouse, iv, total radioactivity, Ratio Tumor-to-Blood
Where a SMILES comes first, the peptide text is derived from it. Bridges are numbered along the chain shown (N, C = ends). [ ]: non-standard residue; d: D form. The star is where a group is joined. X3 = O=C(O)CN1CCN(CC(=O)O)CCN(CC(=O)N[C@@H](CS(=O)(=O)O)C(=O)N[C@@H](CCCCNC(=O)CCCc2ccc(Br)cc2)C(=O)*)CCN(CC(=O)O)CC1; X1 = O=C(O)CN1CCN(CC(=O)O)CCN(CC(=O)N[C@@H](CS(=O)(=O)O)C(=O)N[C@@H](CCCCNC(=O)CCCc2ccc(I)cc2)C(=O)*)CCN(CC(=O)O)CC1; 2Nal = N[C@@H](Cc1ccc2ccccc2c1)C(=O)O; Lys(iPr) = CC(C)NCCCC[C@H](N)C(=O)O
Entries and their tissue to tissue ratio at 72 h values follow.
Lab note: write the figure by itself, no unit.

1) CC(C)NCCCC[C@H](NC(=O)[C@H]1CCC(=O)N[C@@H](CCCCNC(=O)[C@H](CCCCNC(=O)CCCc2ccc(Br)cc2)NC(=O)[C@H](CS(=O)(=O)O)NC(=O)CN2CCN(CC(=O)O)CCN(CC(=O)O)CCN(CC(=O)O)CC2)C(=O)N[C@@H](Cc2ccc(O)cc2)C(=O)N[C@@H](CCCCNC(C)C)C(=O)N[C@H](CCCNC(=N)N)C(=O)N[C@@H](Cc2ccc3ccccc3c2)C(=O)N[C@H](C)C(=O)N1)C(N)=O [[^177Lu]Lu-BL34L20, metal not drawn] (K(X3)Y[Lys(iPr)][dR][2Nal][dA][dE][Lys(iPr)]-NH2; lactam N-7); 53.9

What measured tissue to tissue ratio at 72 h goes with CC(C)NCCCC[C@H](NC(=O)[C@H]1CCC(=O)N[C@@H](CCCCNC(=O)[C@H](CCCCNC(=O)CCCc2ccc(I)cc2)NC(=O)[C@H](CS(=O)(=O)O)NC(=O)CN2CCN(CC(=O)O)CCN(CC(=O)O)CCN(CC(=O)O)CC2)C(=O)N[C@@H](Cc2ccc(O)cc2)C(=O)N[C@@H](CCCCNC(C)C)C(=O)N[C@H](CCCNC(=N)N)C(=O)N[C@@H](Cc2ccc3ccccc3c2)C(=O)N[C@H](C)C(=O)N1)C(N)=O [[^177Lu]Lu-BL34L11, metal not drawn] (K(X1)Y[Lys(iPr)][dR][2Nal][dA][dE][Lys(iPr)]-NH2; lactam N-7) ? 12.3

These data points were gathered from patent US20250242064A1.
